compounds and their reported Serratia marcescens MITC95
System: Serratia marcescens expressing IMP-1 (CL5741)
Format: cell-based
ASSAY CONDITIONS: IMP-1 strain CL5741, with imipenem 1 μg/ml, 95% inhibition of growth
VALUE TYPE: Serratia marcescens MITC95 (µM)

SMILES NOTATION	EXPERIMENTAL TARGET	UNIT TAG	MEASUREMENT
NCCCNC(=O)c1cccc(-c2ccc(S(=O)(=O)NCCN)c(S(N)(=O)=O)c2-c2nn[nH]n2)c1	Serratia marcescens expressing IMP-1 (CL5741)	µM	1.563
C[C@H](CN)NS(=O)(=O)c1ccc(-c2ccnc(N)c2)c(-c2nn[nH]n2)c1S(N)(=O)=O	Serratia marcescens expressing IMP-1 (CL5741)	µM	1.563
NCc1nc2c(-c3ccc(S(=O)(=O)NC[C@@H]4CNCCN4)c(S(N)(=O)=O)c3-c3nn[nH]n3)cccc2[nH]1	Serratia marcescens expressing IMP-1 (CL5741)	µM	1.563
NCCNS(=O)(=O)c1ccc(-c2cccc(NC(=O)[C@H](N)CO)c2)c(-c2nn[nH]n2)c1S(N)(=O)=O	Serratia marcescens expressing IMP-1 (CL5741)	µM	3.125
NC[C@@H](N)CNS(=O)(=O)c1ccc(-c2cccc3ccc(N)nc23)c(-c2nn[nH]n2)c1S(N)(=O)=O	Serratia marcescens expressing IMP-1 (CL5741)	µM	3.125
N[C@H]1CNC[C@H]1NS(=O)(=O)c1ccc(-c2cnc3cc[nH]c3c2)c(-c2nn[nH]n2)c1S(N)(=O)=O	Serratia marcescens expressing IMP-1 (CL5741)	µM	0.7813
Nc1ccc(-c2ccc(S(=O)(=O)NC[C@@H]3CCNC3)c(S(N)(=O)=O)c2-c2nn[nH]n2)cn1	Serratia marcescens expressing IMP-1 (CL5741)	µM	0.7813
Nc1ccc(-c2ccc(S(=O)(=O)NC[C@@H]3CCCN3)c(S(N)(=O)=O)c2-c2nn[nH]n2)cn1	Serratia marcescens expressing IMP-1 (CL5741)	µM	0.1953
NC[C@@H](CO)NS(=O)(=O)c1ccc(-c2cccc3[nH]c(N)nc23)c(-c2nnn[nH]2)c1S(N)(=O)=O	Serratia marcescens expressing IMP-1 (CL5741)	µM	0.7813
C[C@H](CN)NS(=O)(=O)c1ccc(-c2ccc(N)nc2)c(-c2nn[nH]n2)c1S(N)(=O)=O	Serratia marcescens expressing IMP-1 (CL5741)	µM	1.042
NC[C@@H](O)CNS(=O)(=O)c1ccc(-c2cnc(N)c(F)c2)c(-c2nn[nH]n2)c1S(N)(=O)=O	Serratia marcescens expressing IMP-1 (CL5741)	µM	1.563
NCCNC(=O)c1cccc(-c2ccc(S(=O)(=O)NCCN)c(S(N)(=O)=O)c2-c2nn[nH]n2)c1	Serratia marcescens expressing IMP-1 (CL5741)	µM	0.7813
NC[C@H](CO)NS(=O)(=O)c1ccc(-c2ccnc(N)c2)c(-c2nn[nH]n2)c1S(N)(=O)=O	Serratia marcescens expressing IMP-1 (CL5741)	µM	1.563
NCCNCc1sc(N)nc1-c1cccc(-c2ccc(S(=O)(=O)N[C@@H]3CCNC3)c(S(N)(=O)=O)c2-c2nnn[nH]2)c1	Serratia marcescens expressing IMP-1 (CL5741)	µM	1.563
Cn1c(N)nc2c(-c3ccc(S(=O)(=O)NC[C@H](O)CN)c(S(N)(=O)=O)c3-c3nn[nH]n3)cccc21	Serratia marcescens expressing IMP-1 (CL5741)	µM	0.7813
NCc1nc2cc(-c3ccc(S(=O)(=O)NC[C@@H](O)CN)c(S(N)(=O)=O)c3-c3nn[nH]n3)ccc2s1	Serratia marcescens expressing IMP-1 (CL5741)	µM	1.563
NC[C@H](CO)NS(=O)(=O)c1ccc(-c2cccc3[nH]nnc23)c(-c2nn[nH]n2)c1S(N)(=O)=O	Serratia marcescens expressing IMP-1 (CL5741)	µM	1.563
CN([C@H]1CCNC1)S(=O)(=O)c1ccc(-c2cccc3[nH]c(N)nc23)c(-c2nn[nH]n2)c1S(N)(=O)=O	Serratia marcescens expressing IMP-1 (CL5741)	µM	1.563
NC[C@@H](CO)NS(=O)(=O)c1ccc(-c2cccc(N)n2)c(-c2nn[nH]n2)c1S(N)(=O)=O	Serratia marcescens expressing IMP-1 (CL5741)	µM	1.563
C[C@H](CN)NS(=O)(=O)c1ccc(-c2cccn3ccnc23)c(-c2nn[nH]n2)c1S(N)(=O)=O	Serratia marcescens expressing IMP-1 (CL5741)	µM	3.125
NCCNC(=O)c1cc(Cl)cc(-c2ccc(S(=O)(=O)NCCN)c(S(N)(=O)=O)c2-c2nn[nH]n2)c1N	Serratia marcescens expressing IMP-1 (CL5741)	µM	0.7813
NCCNS(=O)(=O)c1ccc(-c2ccnc(CN)c2)c(-c2nn[nH]n2)c1S(N)(=O)=O	Serratia marcescens expressing IMP-1 (CL5741)	µM	3.125
Nc1ccc(-c2ccc(S(=O)(=O)NC[C@H]3CCNC3)c(S(N)(=O)=O)c2-c2nn[nH]n2)cn1	Serratia marcescens expressing IMP-1 (CL5741)	µM	0.3906
C[C@H](N)CNS(=O)(=O)c1ccc(-c2ccnc(N)c2)c(-c2nn[nH]n2)c1S(N)(=O)=O	Serratia marcescens expressing IMP-1 (CL5741)	µM	0.7813
NCCNS(=O)(=O)c1ccc(-c2cccc(SC[C@@H](O)CN)c2)c(-c2nn[nH]n2)c1S(N)(=O)=O	Serratia marcescens expressing IMP-1 (CL5741)	µM	0.7813
Nc1nc2c(-c3ccc(S(=O)(=O)NC[C@@H]4CNCCN4)c(S(N)(=O)=O)c3-c3nn[nH]n3)cccc2[nH]1	Serratia marcescens expressing IMP-1 (CL5741)	µM	0.7813
Nc1nc2c(-c3ccc(S(=O)(=O)NC[C@]4(N)CCNC4)c(S(N)(=O)=O)c3-c3nn[nH]n3)cccc2s1	Serratia marcescens expressing IMP-1 (CL5741)	µM	1.563
NCCNS(=O)(=O)c1ccc(-c2cccc3[nH]c(CN)nc23)c(-c2nn[nH]n2)c1S(N)(=O)=O	Serratia marcescens expressing IMP-1 (CL5741)	µM	0.7813
